Where do these numbers come from? They come from patent US20240270698A2.

- Experimental System: human recombinant LRRK2 protein (Homo sapiens, UniProt Q5S007)
- Sequence (Q5S007 whole entry): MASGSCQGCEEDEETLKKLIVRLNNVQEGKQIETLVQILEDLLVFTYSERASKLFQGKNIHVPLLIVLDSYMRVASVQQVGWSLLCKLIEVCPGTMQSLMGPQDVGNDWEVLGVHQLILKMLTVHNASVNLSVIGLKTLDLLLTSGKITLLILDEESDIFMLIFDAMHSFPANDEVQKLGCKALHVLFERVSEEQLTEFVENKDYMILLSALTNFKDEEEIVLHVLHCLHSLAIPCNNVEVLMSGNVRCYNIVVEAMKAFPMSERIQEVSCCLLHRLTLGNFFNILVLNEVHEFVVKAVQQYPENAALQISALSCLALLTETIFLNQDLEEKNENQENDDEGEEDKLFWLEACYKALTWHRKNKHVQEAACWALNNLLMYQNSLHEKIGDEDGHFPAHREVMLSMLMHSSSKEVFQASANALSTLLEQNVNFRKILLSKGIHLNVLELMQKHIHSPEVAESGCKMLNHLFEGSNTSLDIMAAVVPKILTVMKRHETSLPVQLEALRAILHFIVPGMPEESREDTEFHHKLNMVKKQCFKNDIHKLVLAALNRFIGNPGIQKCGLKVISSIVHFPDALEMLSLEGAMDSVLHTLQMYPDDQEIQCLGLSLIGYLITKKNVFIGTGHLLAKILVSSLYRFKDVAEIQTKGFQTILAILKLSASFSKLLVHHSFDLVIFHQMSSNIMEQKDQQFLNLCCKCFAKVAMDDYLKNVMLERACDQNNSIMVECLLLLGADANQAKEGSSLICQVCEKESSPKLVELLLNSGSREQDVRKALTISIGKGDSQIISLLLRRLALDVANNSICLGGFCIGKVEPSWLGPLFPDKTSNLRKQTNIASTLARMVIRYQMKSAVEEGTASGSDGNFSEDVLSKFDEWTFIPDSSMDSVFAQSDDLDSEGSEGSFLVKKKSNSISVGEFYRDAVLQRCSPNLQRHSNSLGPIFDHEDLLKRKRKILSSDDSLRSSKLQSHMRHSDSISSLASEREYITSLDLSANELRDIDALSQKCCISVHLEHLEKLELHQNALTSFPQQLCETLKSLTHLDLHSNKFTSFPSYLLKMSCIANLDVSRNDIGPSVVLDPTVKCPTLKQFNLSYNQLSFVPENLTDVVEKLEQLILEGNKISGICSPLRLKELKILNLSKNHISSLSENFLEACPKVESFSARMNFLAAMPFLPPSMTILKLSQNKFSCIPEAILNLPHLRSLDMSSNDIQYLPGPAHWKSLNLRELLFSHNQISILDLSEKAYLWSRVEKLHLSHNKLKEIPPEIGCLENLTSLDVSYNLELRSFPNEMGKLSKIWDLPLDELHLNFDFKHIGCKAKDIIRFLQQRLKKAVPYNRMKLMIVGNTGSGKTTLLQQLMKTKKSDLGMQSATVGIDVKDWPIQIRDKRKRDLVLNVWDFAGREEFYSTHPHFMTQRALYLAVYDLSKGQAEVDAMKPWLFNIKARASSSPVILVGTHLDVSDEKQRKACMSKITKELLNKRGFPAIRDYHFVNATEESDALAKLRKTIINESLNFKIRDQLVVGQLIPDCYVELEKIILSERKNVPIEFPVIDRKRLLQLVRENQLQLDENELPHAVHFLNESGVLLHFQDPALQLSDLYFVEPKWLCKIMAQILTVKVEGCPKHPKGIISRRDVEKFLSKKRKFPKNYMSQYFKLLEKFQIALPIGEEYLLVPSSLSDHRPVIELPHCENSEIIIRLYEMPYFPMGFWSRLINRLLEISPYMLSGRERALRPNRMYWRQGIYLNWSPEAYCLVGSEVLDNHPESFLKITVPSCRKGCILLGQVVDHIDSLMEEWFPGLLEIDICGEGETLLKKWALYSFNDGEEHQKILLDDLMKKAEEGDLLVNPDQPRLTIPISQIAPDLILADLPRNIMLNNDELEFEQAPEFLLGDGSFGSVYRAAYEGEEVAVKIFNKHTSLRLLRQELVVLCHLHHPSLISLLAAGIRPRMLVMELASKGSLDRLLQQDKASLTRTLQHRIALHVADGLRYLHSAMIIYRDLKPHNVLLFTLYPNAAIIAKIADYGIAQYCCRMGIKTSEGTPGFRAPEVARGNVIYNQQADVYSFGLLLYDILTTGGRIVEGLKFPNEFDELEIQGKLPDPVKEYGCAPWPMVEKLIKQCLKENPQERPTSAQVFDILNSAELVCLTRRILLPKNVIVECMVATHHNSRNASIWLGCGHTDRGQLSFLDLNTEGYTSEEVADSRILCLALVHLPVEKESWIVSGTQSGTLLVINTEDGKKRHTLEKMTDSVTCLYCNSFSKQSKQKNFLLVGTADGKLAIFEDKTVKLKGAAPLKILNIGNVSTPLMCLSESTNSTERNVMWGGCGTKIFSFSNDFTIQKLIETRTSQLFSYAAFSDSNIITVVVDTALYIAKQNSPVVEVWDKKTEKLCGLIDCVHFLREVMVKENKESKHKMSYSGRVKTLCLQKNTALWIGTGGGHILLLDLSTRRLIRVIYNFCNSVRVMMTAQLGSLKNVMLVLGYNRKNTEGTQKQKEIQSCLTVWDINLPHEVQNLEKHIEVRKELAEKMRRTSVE
- Test Description: LRRK2 kinase activity assay (Eurofins, gamma-33P-ATP, filtermat scintillation counting)
- Conditions Used: human recombinant LRRK2, 40 minutes at room temperature
Experimental Readout: IC50

INSERT INTO assay_data (molecule, experimental_system, reported) VALUES
  ('CP(C)(=O)c1ccccc1Nc1nc(Nc2cccc3cc[nH]c23)ncc1Cl [compound 71]', 'human recombinant LRRK2 protein (Homo sapiens, UniProt Q5S007)', '1 to 10 nM'),
  ('CC(C)S(=O)(=O)c1ccccc1Nc1nc(Nc2cc(F)cc(F)c2)ncc1Cl [compound 6]', 'human recombinant LRRK2 protein (Homo sapiens, UniProt Q5S007)', '100 to 1000 nM'),
  ('CP(C)(=O)c1ccccc1Nc1nc(Nc2ccc3ncsc3c2)ncc1Cl [compound 11]', 'human recombinant LRRK2 protein (Homo sapiens, UniProt Q5S007)', '1 to 10 nM'),
  ('CC1(C)NCCc2ccc(Nc3ncc(Cl)c(Nc4ccccc4P(C)(C)=O)n3)cc21 [compound 44]', 'human recombinant LRRK2 protein (Homo sapiens, UniProt Q5S007)', '1 to 10 nM'),
  ('CP(C)(=O)c1ccccc1Nc1nc(Nc2ccncc2)ncc1Cl [compound 15]', 'human recombinant LRRK2 protein (Homo sapiens, UniProt Q5S007)', '> 1000 nM'),
  ('Cc1ccc(-c2n[nH]c3ccc(Nc4ncc(Cl)c(Nc5ccccc5P(C)(C)=O)n4)cc23)cc1Cl [compound 112]', 'human recombinant LRRK2 protein (Homo sapiens, UniProt Q5S007)', '10 to 100 nM');

// query What measured IC50 goes with CP(C)(=O)c1ccccc1Nc1nc(N2CCc3c(N)cccc3C2)ncc1Cl [compound 9] ?
// result > 1000 nM

// query Could you do the same for COc1ccc(-c2n[nH]c3ccc(Nc4ncc(Cl)c(Nc5ccccc5P(C)(C)=O)n4)cc23)cc1F [compound 109] , please?
// result 10 to 100 nM
